This collection of values is drawn from patent US12492208B2.

# assay_info: Dynamic vapor sorption (DVS) test
# Type: physicochemical
# protocol_conditions: relative humidity 5%, 25° C.
measure_name: Weight change rate, Adsorption (%)

Before answering, review these 3 worked examples.
molecule	measured_number
C=CC(=O)N1C[C@H](n2c(C#CC3CC3)c(C(=O)N[C@H](C)c3ccccc3)c3c(N)ncnc32)C[C@@H]1C [type V crystal of compound (I) with 1 equivalent of fumaric ]	0.01
C=CC(=O)N1C[C@H](n2c(C#CC3CC3)c(C(=O)N[C@H](C)c3ccccc3)c3c(N)ncnc32)C[C@@H]1C [free-form type II crystal of compound (I)]	0.01
C=CC(=O)N1C[C@H](n2c(C#CC3CC3)c(C(=O)N[C@H](C)c3ccccc3)c3c(N)ncnc32)C[C@@H]1C [free-form type I crystal of compound (I)]	0.01

P: C=CC(=O)N1C[C@H](n2c(C#CC3CC3)c(C(=O)N[C@H](C)c3ccccc3)c3c(N)ncnc32)C[C@@H]1C [type II crystal of compound (I) with 1 equivalent of fumaric]
Q: C=CC(=O)N1C[C@H](n2c(C#CC3CC3)c(C(=O)N[C@H](C)c3ccccc3)c3c(N)ncnc32)C[C@@H]1C [crystal of compound (I) with 1 equivalent of L-tartaric acid]
Enquiry: // compare measured Weight change rate, Adsorption between P and Q ; output the lower one Pick one and reply with its label.
Return: P

###

# assay_info: Dynamic vapor sorption (DVS) test
# Type: physicochemical
# protocol_conditions: relative humidity 20%, 25° C.
measure_name: Weight change rate, Desorption (%)

Known Weight change rate, Desorption results, listed for orientation:
compound	measure_name	unit_info	measured_number
C=CC(=O)N1C[C@H](n2c(C#CC3CC3)c(C(=O)N[C@H](C)c3ccccc3)c3c(N)ncnc32)C[C@@H]1C [crystal of compound (I) with 1 equivalent of L-tartaric acid]	Weight change rate, Desorption	%	1.16
C=CC(=O)N1C[C@H](n2c(C#CC3CC3)c(C(=O)N[C@H](C)c3ccccc3)c3c(N)ncnc32)C[C@@H]1C [free-form type II crystal of compound (I)]	Weight change rate, Desorption	%	0.03
C=CC(=O)N1C[C@H](n2c(C#CC3CC3)c(C(=O)N[C@H](C)c3ccccc3)c3c(N)ncnc32)C[C@@H]1C [type V crystal of compound (I) with 1 equivalent of fumaric ]	Weight change rate, Desorption	%	0.16

1: C=CC(=O)N1C[C@H](n2c(C#CC3CC3)c(C(=O)N[C@H](C)c3ccccc3)c3c(N)ncnc32)C[C@@H]1C [type II crystal of compound (I) with 1 equivalent of fumaric]
2: C=CC(=O)N1C[C@H](n2c(C#CC3CC3)c(C(=O)N[C@H](C)c3ccccc3)c3c(N)ncnc32)C[C@@H]1C [free-form type I crystal of compound (I)]
Enquiry: Quick check, higher Weight change rate, Desorption between 1 and 2 ? Choose, then provide that item's label.
Return: 1
(1: 0.13%, 2: 0.04%)

###

# assay_info: Blood concentration measurement test
# Assay type: in vivo, female rats (Crl:CD (SD))
# protocol_conditions: rat, oral, 300 mg/kg
measure_name: Cmax (nM)
Give just the number in nM; leave the unit off.

Enquiry: For the compound shown here, C=CC(=O)N1C[C@H](n2c(C#CC3CC3)c(C(=O)N[C@H](C)c3ccccc3)c3c(N)ncnc32)C[C@@H]1C [free-form type II crystal of compound (I)] , give the reported Cmax.
Return: 2250

###

# assay_info: Blood concentration measurement test
# Assay type: in vivo, female rats (Crl:CD (SD))
# protocol_conditions: female, Crl:CD (SD), rat, plasma, po, 100 mg/kg
measure_name: Cmax (nM)
Respond numerically; units are nM and should not be typed.

Enquiry: Look at this compound and give its reported Cmax. C=CC(=O)N1C[C@H](n2c(C#CC3CC3)c(C(=O)N[C@H](C)c3ccccc3)c3c(N)ncnc32)C[C@@H]1C [free-form type I crystal of compound (I)]
Return: 2670

###

# assay_info: Dynamic vapor sorption (DVS) test
# Type: physicochemical
# protocol_conditions: relative humidity 40%, 25° C.
measure_name: Weight change rate, Adsorption (%)

Consider the reported Weight change rate, Adsorption for these compounds:
compound	unit_info	measured_number
C=CC(=O)N1C[C@H](n2c(C#CC3CC3)c(C(=O)N[C@H](C)c3ccccc3)c3c(N)ncnc32)C[C@@H]1C [crystal of compound (I) with 1 equivalent of L-tartaric acid]	%	1.60
C=CC(=O)N1C[C@H](n2c(C#CC3CC3)c(C(=O)N[C@H](C)c3ccccc3)c3c(N)ncnc32)C[C@@H]1C [type V crystal of compound (I) with 1 equivalent of fumaric ]	%	0.21

P: C=CC(=O)N1C[C@H](n2c(C#CC3CC3)c(C(=O)N[C@H](C)c3ccccc3)c3c(N)ncnc32)C[C@@H]1C [free-form type I crystal of compound (I)]
Q: C=CC(=O)N1C[C@H](n2c(C#CC3CC3)c(C(=O)N[C@H](C)c3ccccc3)c3c(N)ncnc32)C[C@@H]1C [free-form type II crystal of compound (I)]
R: C=CC(=O)N1C[C@H](n2c(C#CC3CC3)c(C(=O)N[C@H](C)c3ccccc3)c3c(N)ncnc32)C[C@@H]1C [type II crystal of compound (I) with 1 equivalent of fumaric]
Enquiry: # rank by Weight change rate, Adsorption, ascending (min first) Give the labels in the order specified.
Return: Q, P, R

###

# assay_info: Dynamic vapor sorption (DVS) test
# Assay type: physicochemical
# protocol_conditions: relative humidity 80%, 25° C.
measure_name: Weight change rate, Desorption (%)

I: C=CC(=O)N1C[C@H](n2c(C#CC3CC3)c(C(=O)N[C@H](C)c3ccccc3)c3c(N)ncnc32)C[C@@H]1C [free-form type I crystal of compound (I)]
II: C=CC(=O)N1C[C@H](n2c(C#CC3CC3)c(C(=O)N[C@H](C)c3ccccc3)c3c(N)ncnc32)C[C@@H]1C [type II crystal of compound (I) with 1 equivalent of fumaric]
III: C=CC(=O)N1C[C@H](n2c(C#CC3CC3)c(C(=O)N[C@H](C)c3ccccc3)c3c(N)ncnc32)C[C@@H]1C [free-form type II crystal of compound (I)]
IV: C=CC(=O)N1C[C@H](n2c(C#CC3CC3)c(C(=O)N[C@H](C)c3ccccc3)c3c(N)ncnc32)C[C@@H]1C [crystal of compound (I) with 1 equivalent of L-tartaric acid]
Enquiry: Arrange these 4 compounds in increasing order of Weight change rate, Desorption. Enter labels, ranked according to the request.
Return: III, II, I, IV
(III: 0.11%, II: 0.34%, I: 0.69%, IV: 3.64%)

###

# assay_info: Dynamic vapor sorption (DVS) test
# Type: physicochemical
# protocol_conditions: relative humidity 60%, 25° C.
measure_name: Weight change rate, Adsorption (%)

I: C=CC(=O)N1C[C@H](n2c(C#CC3CC3)c(C(=O)N[C@H](C)c3ccccc3)c3c(N)ncnc32)C[C@@H]1C [type II crystal of compound (I) with 1 equivalent of fumaric]
II: C=CC(=O)N1C[C@H](n2c(C#CC3CC3)c(C(=O)N[C@H](C)c3ccccc3)c3c(N)ncnc32)C[C@@H]1C [crystal of compound (I) with 1 equivalent of L-tartaric acid]
III: C=CC(=O)N1C[C@H](n2c(C#CC3CC3)c(C(=O)N[C@H](C)c3ccccc3)c3c(N)ncnc32)C[C@@H]1C [free-form type II crystal of compound (I)]
Enquiry: Lab note: rank above entries, Weight change rate, Adsorption ascending. Response format: the labels, sorted as the prompt asks.
Return: III, I, II
(III: 0.08%, I: 0.27%, II: 2.16%)

###

# assay_info: Dynamic vapor sorption (DVS) test
# Format: physicochemical
# protocol_conditions: relative humidity 80%, 25° C.
measure_name: Weight change rate, Adsorption (%)

molecule	Weight change rate, Adsorption (%)
C=CC(=O)N1C[C@H](n2c(C#CC3CC3)c(C(=O)N[C@H](C)c3ccccc3)c3c(N)ncnc32)C[C@@H]1C [free-form type I crystal of compound (I)]	0.50
C=CC(=O)N1C[C@H](n2c(C#CC3CC3)c(C(=O)N[C@H](C)c3ccccc3)c3c(N)ncnc32)C[C@@H]1C [type V crystal of compound (I) with 1 equivalent of fumaric ]	0.47
C=CC(=O)N1C[C@H](n2c(C#CC3CC3)c(C(=O)N[C@H](C)c3ccccc3)c3c(N)ncnc32)C[C@@H]1C [free-form type II crystal of compound (I)]	0.10

1: C=CC(=O)N1C[C@H](n2c(C#CC3CC3)c(C(=O)N[C@H](C)c3ccccc3)c3c(N)ncnc32)C[C@@H]1C [crystal of compound (I) with 1 equivalent of L-tartaric acid]
2: C=CC(=O)N1C[C@H](n2c(C#CC3CC3)c(C(=O)N[C@H](C)c3ccccc3)c3c(N)ncnc32)C[C@@H]1C [type II crystal of compound (I) with 1 equivalent of fumaric]
Enquiry: Task for the reader: decide whether 1 or 2 has the larger Weight change rate, Adsorption. State the label of the item chosen.
Return: 1
(1: 3.26%, 2: 0.34%)

###

# assay_info: Dynamic vapor sorption (DVS) test
# Format: physicochemical
# protocol_conditions: relative humidity 20%, 25° C.
# Procedure: Dynamic vapor sorption tests were conducted using a type II crystal of compound (I) with1 equivalent of fumaric acid, a free-form type II crystal of the same, a free-form type I crystal of the same, a type V crystal of the same with 1 equivalent of fumaric acid, and a crystal of the same with 1 equivalent of L-tartaric acid obtained in the Examples and Reference Examples. The dynamic vapor sorption test was conducted for measurement according to the following conditions. […]
measure_name: Weight change rate, Adsorption (%)

Would you please look over these solved cases?
compound	unit_info	measured_number
C=CC(=O)N1C[C@H](n2c(C#CC3CC3)c(C(=O)N[C@H](C)c3ccccc3)c3c(N)ncnc32)C[C@@H]1C [crystal of compound (I) with 1 equivalent of L-tartaric acid]	%	1.05
C=CC(=O)N1C[C@H](n2c(C#CC3CC3)c(C(=O)N[C@H](C)c3ccccc3)c3c(N)ncnc32)C[C@@H]1C [type II crystal of compound (I) with 1 equivalent of fumaric]	%	0.11

I: C=CC(=O)N1C[C@H](n2c(C#CC3CC3)c(C(=O)N[C@H](C)c3ccccc3)c3c(N)ncnc32)C[C@@H]1C [type V crystal of compound (I) with 1 equivalent of fumaric ]
II: C=CC(=O)N1C[C@H](n2c(C#CC3CC3)c(C(=O)N[C@H](C)c3ccccc3)c3c(N)ncnc32)C[C@@H]1C [free-form type I crystal of compound (I)]
III: C=CC(=O)N1C[C@H](n2c(C#CC3CC3)c(C(=O)N[C@H](C)c3ccccc3)c3c(N)ncnc32)C[C@@H]1C [free-form type II crystal of compound (I)]
Enquiry: Could you please sort these 3 entries by Weight change rate, Adsorption from high to low? Form entry: ranked labels (order as requested).
Return: I, II, III
(I: 0.11%, II: 0.04%, III: 0.02%)
